Recorded values, source PubChem BioAssay AID1508601.

SUBJECT OF TEST: Cellular tumor antigen p53 (Homo sapiens)
MEASUREMENT NOTES: p53 stabilisation in HPV-positive human cells, imaging, p53-positive nuclei imaging, 24 h, 48 h (AID 1508601)
TEST SETTINGS: 24/48 h, Library stock concentration: 500 nM, hits give high values
About 85 (1%) of roughly 5,700 compounds were called active. The list comes from a sample in which actives are over-represented; it also holds close analogues and randomly drawn compounds.
TEST READOUT: p53-positive nuclei, normalised (%)
Number in %, nothing else.

Some molecules with recorded p53-positive nuclei, normalised:
MOLECULE	SUBJECT OF TEST	U	p53-positive nuclei, normalised
CC[n+]1c(-c2ccccc2)c2cc(N)ccc2c2ccc(N)cc21	Cellular tumor antigen p53 (Homo sapiens)	%	0.0282
OC1CN2CCC(O)[C@H]2C(O)C1O (stereo not given in full)	Cellular tumor antigen p53 (Homo sapiens)	%	-0.0904
NOCCC(N)C(=O)O (stereo not given)	Cellular tumor antigen p53 (Homo sapiens)	%	-0.0211
CC1OC(O[C@H]2CC[C@@]3(C)[C@@H](CC[C@@H]4[C@H]3CC[C@]3(C)[C@@H](C5=CC(=O)OC5)CC[C@]43O)C2)CC(O)C1O (stereo not given in full)	Cellular tumor antigen p53 (Homo sapiens)	%	1.14

Turning now to a further molecule:
For the molecule CN1C(=O)[C@@]23C[C@]4([C@]56C[C@@]78SS[C@@](CO)(C(=O)N7[C@@H]5Nc5ccccc56)N(C)C8=O)c5ccccc5N[C@H]4N2C(=O)[C@]1(CO)SS3 , give its reported p53-positive nuclei, normalised. 0.0843
